Reference source for all entries: paper PMC5175340

target: eIF2 (β E189K), eIF2βE189K (Saccharomyces cerevisiae, UniProt P09064+P32481, E189K); construct: purified apo-eIF2 heterotrimer; V5-sui3-E189K (N-terminal V5 tag on eIF2β), SUI2, His6-GCD11; nucleotide-free after EDTA dialysis; test: Steady-state fluorescence titration of 100 nM BODIPY-FL nucleotide with increasing apo-eIF2 (490 nm excitation, 509 nm emission) in 30 mM HEPES, 100 mM KCl, 10 mM MgCl2, pH 7.4, at room temperature, fitted to a single-site binding model.
Sequence (P09064 whole entry E189K): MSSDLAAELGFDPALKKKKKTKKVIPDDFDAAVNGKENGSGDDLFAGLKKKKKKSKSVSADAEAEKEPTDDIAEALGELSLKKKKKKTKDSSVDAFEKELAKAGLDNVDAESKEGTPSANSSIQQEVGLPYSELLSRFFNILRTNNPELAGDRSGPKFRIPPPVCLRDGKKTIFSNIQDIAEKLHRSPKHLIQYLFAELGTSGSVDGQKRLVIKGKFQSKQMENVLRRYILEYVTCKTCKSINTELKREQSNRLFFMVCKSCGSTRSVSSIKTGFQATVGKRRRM
Sequence (P32481 whole entry): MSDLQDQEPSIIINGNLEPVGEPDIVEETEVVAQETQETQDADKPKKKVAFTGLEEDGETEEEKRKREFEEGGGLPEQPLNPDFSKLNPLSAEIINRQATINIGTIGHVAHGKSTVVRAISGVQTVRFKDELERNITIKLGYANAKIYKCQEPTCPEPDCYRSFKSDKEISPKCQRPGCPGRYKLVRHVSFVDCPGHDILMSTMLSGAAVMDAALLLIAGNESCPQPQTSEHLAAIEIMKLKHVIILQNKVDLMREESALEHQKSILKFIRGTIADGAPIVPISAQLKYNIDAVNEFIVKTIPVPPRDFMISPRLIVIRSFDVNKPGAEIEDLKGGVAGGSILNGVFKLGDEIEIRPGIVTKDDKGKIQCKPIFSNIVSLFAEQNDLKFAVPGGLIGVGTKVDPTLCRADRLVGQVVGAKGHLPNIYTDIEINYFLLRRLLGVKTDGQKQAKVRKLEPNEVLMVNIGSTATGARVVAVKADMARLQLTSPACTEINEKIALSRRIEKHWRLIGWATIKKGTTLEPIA
Sequence (P20459 whole entry, stated change not applied, further chain): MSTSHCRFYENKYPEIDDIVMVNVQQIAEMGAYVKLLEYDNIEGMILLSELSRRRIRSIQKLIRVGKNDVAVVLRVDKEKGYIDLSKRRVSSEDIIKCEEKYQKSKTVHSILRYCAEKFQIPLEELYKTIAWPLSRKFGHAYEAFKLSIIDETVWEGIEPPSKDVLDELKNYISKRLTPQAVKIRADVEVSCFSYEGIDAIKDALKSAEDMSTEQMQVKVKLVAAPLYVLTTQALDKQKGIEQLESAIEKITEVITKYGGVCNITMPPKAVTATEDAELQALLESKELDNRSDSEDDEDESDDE
Would you mind telling me the reported pKd of each entry?
Scale: negative log10 of molar concentration, which is what pKd denotes.

Record Cc1cc(C)n2c1C=C1C=CC(CCC(=O)NCCNC(=O)OC3C(COP(=O)(O)OP(=O)(O)O)OC(n4cnc5c(=O)[nH]c(N)nc54)C3O)=[N+]1[B-]2(F)F (centres unmarked) . Reported pKd: 7.71

Record Cc1cc(C)n2c1C=C1C=CC(CCC(=O)NCCNC(=O)OC3C(COP(=O)(O)OP(=O)(O)OP(=O)(O)O)OC(n4cnc5c(=O)[nH]c(N)nc54)C3O)=[N+]1[B-]2(F)F (centres unmarked) . Reported pKd: 7.49

###

Would you mind telling me the reported Kd of each entry?
target: eIF2 WT (Saccharomyces cerevisiae, UniProt P32481); construct: purified apo-eIF2 heterotrimer; V5-SUI3 (N-terminal V5 tag on eIF2β), SUI2, His6-GCD11; nucleotide-free after EDTA dialysis; assay: Steady-state fluorescence titration of 100 nM BODIPY-FL nucleotide with increasing apo-eIF2 (490 nm excitation, 509 nm emission) in 30 mM HEPES, 100 mM KCl, 10 mM MgCl2, pH 7.4, at room temperature, fitted to a single-site binding model.
Sequence (P09064 whole entry partner, one chain of several): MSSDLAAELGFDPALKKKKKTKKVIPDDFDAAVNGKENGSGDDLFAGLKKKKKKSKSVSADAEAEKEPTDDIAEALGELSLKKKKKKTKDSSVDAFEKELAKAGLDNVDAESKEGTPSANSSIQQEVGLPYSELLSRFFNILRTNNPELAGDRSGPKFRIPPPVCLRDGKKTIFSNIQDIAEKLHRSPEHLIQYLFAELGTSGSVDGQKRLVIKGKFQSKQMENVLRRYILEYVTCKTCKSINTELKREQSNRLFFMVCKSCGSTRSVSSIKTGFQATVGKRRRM
Reply with just the number (in nM).

Record Cc1cc(C)n2c1C=C1C=CC(CCC(=O)NCCNC(=O)OC3C(COP(=O)(O)OP(=O)(O)OP(=O)(O)O)OC(n4cnc5c(=O)[nH]c(N)nc54)C3O)=[N+]1[B-]2(F)F (centres unmarked) . Reported Kd: 35.2

Record Cc1cc(C)n2c1C=C1C=CC(CCC(=O)NCCNC(=O)OC3C(COP(=O)(O)OP(=O)(O)O)OC(n4cnc5c(=O)[nH]c(N)nc54)C3O)=[N+]1[B-]2(F)F (centres unmarked) . Reported Kd: 19.1
